System: Yap1 mRNA
Test: Inhibition of human Yap1 mRNA in epidermoid carcinoma A-431 xenograft tumors (Example 27)
Type: in vivo
Details: 25 mpk daily (5 doses), A-431 xenografts in NCr-Foxn1nu mice, 6-8 hours post final dose, relative to PBS
Protocol: An epidermoid carcinoma A-431 xenograft tumor model was used to evaluate activity of modified oligonucleotides targeted to human Yap1. Five million A-431 cells in 30% matrigel were implanted subcutaneously into the flanks of female NCr-Foxn1nu mice (from Taconic) at 4-6 weeks of age. […] Yap1 mRNA levels were measured as previously described using the Human Yap1 primer-probe set RTS4814. Yap1 mRNA levels were normalized to actin-beta content, as measured by primer probe set RTS5002. […]
Strand notation (5' to 3'): a small letter for the sugar, then the base; units joined by * are phosphorothioate-linked, units joined directly phosphodiester-linked; [ ] holds rarer units or linkages, { } end groups; capitals alone tell only the bases. k = constrained ethyl (cEt); [5mC] = 5-methylcytosine; d = 2'-deoxy (DNA)
MEASUREMENT NAME: Yap1 mRNA in tumors, % control (% control)
Value expressed in % control; do not type the unit.

Example entries and their recorded answers appear below.
[[record]]
substance = "1197270 (TTAAAGTGTATGTCAG; cEt gapmer with 2'-OMe nucleoside, phosphorothioate, further chemistry not given here) [compound 1197270]"
readout_number = 57

[[record]]
substance = "715487 (kA*kT*kT*dA*d[5mC]*dT*dT*d[5mC]*dA*dT*dA*dG*d[5mC]*kT*kT*kA) [compound 715487]"
readout_number = 61

[[record]]
substance = "958499 (ATTAGAGTATGTGGCA; 3-10-3 cEt gapmer, further chemistry not given here) [compound 958499]"
readout_number = 49

[[record]]
substance = "1198440 (AAGTGTATGTCAGAAG; cEt, 2'-MOE, 5-methylcytosine, phosphorothioate modifications, further chemistry not given here) [compound 1198440]"
readout_number = 32

[[record]]
substance = "1198831 (CACTTTTACATTAGGA; chemically modified gapmer, further chemistry not given here) [compound 1198831]"
readout_number = 47

[[record]]
substance = "1198439 (AGTGTATGTCAGAAGA; sugar, 5-methylcytosine, phosphorothioate modifications, further chemistry not given here) [compound 1198439]"
readout_number = 37


Query: Give the measured Yap1 mRNA in tumors, % control for 1198872 (TGTATGTCAGAAGAGT; chemically modified gapmer, further chemistry not given here) [compound 1198872]
Reply: 34

Query: Return the recorded Yap1 mRNA in tumors, % control value; entry: 1198728 (TATTAGAGTATGTGGC; modified gapmer, further chemistry not given here) [compound 1198728]
Reply: 47

Query: Identify measured Yap1 mRNA in tumors, % control associated with 1198605 (GTAATATTGCAATCTG; modified gapmer, further chemistry not given here) [compound 1198605]
Reply: 32

Query: State its Yap1 mRNA in tumors, % control: 1198623 (CTAAGTAAGGTTTCCC; modified gapmer, further chemistry not given here) [compound 1198623]
Reply: 43

Query: Look up and report measured Yap1 mRNA in tumors, % control for this entry: 1076453 (GTAATATTGCAATCTG; 3-10-3 cEt gapmer, further chemistry not given here) [compound 1076453]
Reply: 55

====

test system: Yap1 mRNA; test: Antisense inhibition of human Yap1 in A-431 cells by cEt gapmers, single dose (Example 2, RTS4814); assay type: cell-based; settings: Table 33; Yap1 mRNA, percent of untreated control; 3-10-3 cEt gapmers targeting SEQ ID NO.: 1, and 2
Strand notation (5' to 3'): a small letter for the sugar, then the base; units joined by * are phosphorothioate-linked, units joined directly phosphodiester-linked; [ ] holds rarer units or linkages, { } end groups; capitals alone tell only the bases. k = constrained ethyl (cEt); [5mC] = 5-methylcytosine; d = 2'-deoxy (DNA)
Quick rule for you: YAP1 (% UTC) at 40 % UTC or higher means satisfied, lower means not satisfied.

[[record]]
substance = "1074195 (antisense k[5mC]*k[5mC]*k[5mC]*dG*dG*dG*dT*d[5mC]*d[5mC]*dG*dG*dA*d[5mC]*kG*kG*k[5mC]) [compound 1074195]"
class = "satisfied"

[[record]]
substance = "1076179 (kA*kA*kT*dT*dA*dG*d[5mC]*d[5mC]*dA*dA*d[5mC]*d[5mC]*dA*k[5mC]*k[5mC]*kT; antisense) [compound 1076179]"
class = "not satisfied"

[[record]]
substance = "1075027 (antisense kA*kA*kA*dT*dT*dT*dG*dA*dA*d[5mC]*dT*dG*d[5mC]*k[5mC]*k[5mC]*kA) [compound 1075027]"
class = "not satisfied"

[[record]]
substance = "1076307 (kG*kT*kA*dA*dT*dT*dA*d[5mC]*d[5mC]*dT*d[5mC]*dT*dA*kA*kT*k[5mC]; antisense) [compound 1076307]"
class = "not satisfied"

[[record]]
substance = "1075475 (kT*kA*kG*d[5mC]*dA*dA*d[5mC]*dA*d[5mC]*dA*dT*dG*dA*kA*kG*kA; antisense) [compound 1075475]"
class = "satisfied"


For the next question, use this substance.
Query: Can 1074707 (antisense kT*kT*kT*dA*dA*dT*dG*dG*d[5mC]*dA*dG*d[5mC]*dA*k[5mC]*kG*kG) [compound 1074707] be said to have YAP1 (% UTC) at or above 40 % UTC?
Reply: not satisfied

====

# Lookup of reported YAP1 (% UTC) keyed by entry
tested on: Yap1 mRNA; experiment: Antisense inhibition of human Yap1 in A-431 cells by cEt gapmers, single dose (Example 3, RTS36584); type: cell-based; settings: Table 35; Yap1 mRNA as percent of untreated control; 3-10-3 cEt gapmers targeting SEQ ID NO: 1 and 2; single dose
Strand notation (5' to 3'): a small letter for the sugar, then the base; units joined by * are phosphorothioate-linked, units joined directly phosphodiester-linked; [ ] holds rarer units or linkages, { } end groups; capitals alone tell only the bases. k = constrained ethyl (cEt); [5mC] = 5-methylcytosine; d = 2'-deoxy (DNA)
Unit % UTC implied. Number only.

Solved entries (count: 5):
[[record]]
substance = "1076373 (antisense kA*kA*k[5mC]*dG*dG*dA*dT*dA*dT*dA*d[5mC]*dA*dA*kT*kA*kA) [compound 1076373]"
measurement_name = "YAP1 (% UTC)"
readout_number = 10

[[record]]
substance = "1075381 (antisense kT*kA*kT*dT*dA*d[5mC]*d[5mC]*d[5mC]*dT*dA*d[5mC]*dT*d[5mC]*kA*kT*kA) [compound 1075381]"
measurement_name = "YAP1 (% UTC)"
readout_number = 89

[[record]]
substance = "1074901 (antisense kT*kA*kT*dT*dA*dA*d[5mC]*dT*dT*dT*dT*dG*dG*kG*k[5mC]*kA) [compound 1074901]"
measurement_name = "YAP1 (% UTC)"
readout_number = 61

[[record]]
substance = "1074389 (kG*k[5mC]*kA*dG*dA*d[5mC]*dT*dT*dG*dG*d[5mC]*dA*dT*k[5mC]*kA*kG; antisense) [compound 1074389]"
measurement_name = "YAP1 (% UTC)"
readout_number = 14

[[record]]
substance = "1075413 (antisense k[5mC]*kA*kT*dA*dA*d[5mC]*dT*dA*d[5mC]*dA*dT*d[5mC]*dG*kA*k[5mC]*kA) [compound 1075413]"
measurement_name = "YAP1 (% UTC)"
readout_number = 34


Okay, now this substance:
Query: Using known records, supply YAP1 (% UTC) for 1076565 (k[5mC]*kA*kT*dT*dA*dA*dG*dT*d[5mC]*dA*d[5mC]*dA*dG*k[5mC]*kA*kT; antisense) [compound 1076565]
Reply: 74

====

tested on: Yap1 mRNA; assay: Antisense inhibition of human Yap1 in A-431 cells by cEt gapmers, single dose (Example 3, RTS36584); assay type: cell-based; conditions: Table 35; Yap1 mRNA as percent of untreated control; 3-10-3 cEt gapmers targeting SEQ ID NO: 1 and 2; single dose
Strand notation (5' to 3'): a small letter for the sugar, then the base; units joined by * are phosphorothioate-linked, units joined directly phosphodiester-linked; [ ] holds rarer units or linkages, { } end groups; capitals alone tell only the bases. k = constrained ethyl (cEt); [5mC] = 5-methylcytosine; d = 2'-deoxy (DNA)
MEASUREMENT NAME: YAP1 (% UTC)
Just the number plus its unit, please.

Here's what some known entries look like.
[[record]]
substance = "1076245 (k[5mC]*k[5mC]*kT*dA*dA*dA*dA*dA*dA*d[5mC]*dT*dA*dG*kT*kG*kA; antisense) [compound 1076245]"
result = "101 % UTC"

[[record]]
substance = "1074773 (k[5mC]*kA*kG*dT*dT*dA*dA*dA*dA*dT*d[5mC]*dT*dT*kA*kT*k[5mC]; antisense) [compound 1074773]"
result = "94 % UTC"


Query: State the measured YAP1 (% UTC) (Yap1 mRNA) of 1076469 (kG*kT*kA*dA*dA*dA*dG*dG*dG*dA*dA*d[5mC]*dT*kA*kA*kG; antisense) [compound 1076469]
Reply: 69 % UTC
